Source of measurements: PubChem BioAssay

- measurement.target: Torsin-1A-interacting protein 2 (Homo sapiens)
- assay.notes: LULL1 binders on small-molecule microarray, primary screen, cell lysate, human LULL1 lysate, 635/667 nm fluorescence (AID 1092);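 note: probe is lysate of COS7 cells overexpressing human LULL1; score merges per-feature 667 nm fluorescence with signal-to-noise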
- experimental.setup: hLULL1 lysate binding, 635 nm fluorescence, higher = more signal
endpoint.name: composite z-score

* CC(C)C(CO)N1C(=O)[C@@H]2[C@H]3C(=O)OCC=C[C@H]3OC23C=CCN(C(C)C)C(=O)[C@@H]13 (stereo not given in full) | 1.4
* [N-]=[N+]=Nc1ccccc1[C@H]1OC(c2ccc(OCCCO)cc2)=N[C@@]1(Cc1ccccc1)C(=O)O | 3.3
* COCC(=C=CC[C@@H](O)c1ccccc1OCCO)C[C@@H](O)c1cc(Cl)cc(Cl)c1O | 2.13
* CCc1oc(CC[C@@H](CO)NC(=O)NCCn2cc(C3(O)CCCCC3)nn2)c(C(=O)OC)c1C(=O)OC | 0.775
* [N-]=[N+]=NCc1ccccc1C[C@]1(C(=O)NCC(O)CO)N=C(c2ccc(OCCCO)cc2)O[C@H]1c1ccccc1 (stereo not given in full) | 2.62
* CCOC(=O)C=Cc1cc([N+](=O)[O-])ccc1O | 0.381
* COc1cc2c(cc1O)C(C1CC1)N(Cc1cc3c(cc1Br)OCO3)CC2 (stereo not given) | 1.61
* COCCOC(=O)N1C(=O)[C@@]2(c3cc(C#CCCO)ccc31)[C@H](c1ccc(OCCO)cc1)N1[C@H](c3ccccc3)[C@H](c3ccccc3)OC(=O)[C@H]1[C@@H]2C(=O)N1CCN(c2ncccn2)CC1 | 2.42
* C=CC[C@@]1(C(N)=O)N=C(c2ccc(OCCCO)cc2)O[C@@H]1c1ccccc1CN=[N+]=[N-] | 3.77
* O=C1OCCC/C=C\[C@H]2OC34C=CCN(c5ccc6ccccc6c5)C(=O)[C@H]3N(CCCCCCO)C(=O)[C@@H]4C12 (stereo not given in full) | 0.132
* CC(=O)NCCCC[C@@H]1NC(=O)[C@@H]2C[C@H](C(=O)NCCCCCCNC(=O)CS)[C@H](c3cccc(OCCO)c3)N2C1=O | 2.03
* O=C(NCc1ccc(F)cc1)[C@H]1C[C@H]2C(=O)N[C@@H](Cc3ccccc3)C(=O)N2[C@H]1c1ccc(O)cc1 | 2.34
* CCCCN1CC=CC23O[C@@H]4/C=C\CCC(C)OC(=O)C4[C@H]2C(=O)N(CCCCCO)[C@@H]3C1=O (stereo not given in full) | 1.72
* COc1ccc(C(O)C2C=CC3C(=O)N(C)C(=O)C3N2N2CCCCC2)c2ccccc12 (stereo not given) | 3.01
* COCCOC(=O)N1C(=O)[C@@]2(c3cc(C#CCCO)ccc31)[C@H](C(=O)N1CCc3cc(OC)c(OC)cc3C1)[C@H]1C(=O)O[C@H](c3ccccc3)[C@H](c3ccccc3)N1[C@@H]2c1ccc(O)cc1 | 2.55
* COc1ccc(NN2C(C(O)c3ccc([N+](=O)[O-])cc3)C=CC3C(=O)N(C4CCCCC4)C(=O)C32)cc1 (stereo not given) | 2.69
* C=CC[C@]12N=C(c3ccc(OCCCO)cc3)O[C@H]1c1ccccc1N(Cc1ccccc1)C2=O | 1.04
* CCCN1C(=O)[C@]2(CCS(=O)(=O)c3ccccc3)N=C(c3ccc(OCCCO)cc3)O[C@@H]2c2ccccc21 | 2.84
* CCOC(=O)C[C@H]1[C@H](OC(=O)c2cc3ccccc3oc2=O)[C@@H](NC(=O)Cc2ccc(OC)cc2)c2cc(OCCCO)ccc2N1C(=O)c1ccccc1 | 1.08
* COCCOC(=O)N1C(=O)[C@@]2(c3cc(C#CCCO)ccc31)[C@H](C(=O)N1CCN(c3ncccn3)CC1)[C@H]1C(=O)O[C@H](c3ccccc3)[C@H](c3ccccc3)N1[C@@H]2c1ccccc1OCCO | 2.98
